experiment: chemical genetic growth profiling, strain panel (AID 1159580);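 also: tested at 20 µM; growth read once vehicle control cultures reached saturation at 30 °C; 1 = growth at the plate median or of vehicle wells; lower values mean less growth of the strain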; conditions: S. cerevisiae deletion strains, growth OD, locus YKL190W, strain CNB1, hits give low values
Hit rate of the full screen: of about 5,500 compounds, about 2,000 (36%) were called active. Not shown: some 18% with an inconclusive outcome. The list shows a part of the results.
Measured Quantity: normalized growth
Field format: numeric only.

> print(dat)
                                   compound  measured.quantity  endpoint.result
1  O=c1n(CCCN2CCN(c3cccc(Cl)c3)CC2)nc2ccccn12  normalized growth            0.986
2  CC(C)=CCc1c(O)cc2occ(-c3ccc4c(c3)OCO4)c(=O)c2c1O  normalized growth             1.01
3  Nc1ncnc2c1ncn2[C@@H]1O[C@H](CO)[C@@H](O)[C@@H]1O  normalized growth            0.996
4  CCCCC(=O)N(Cc1ccc(-c2ccccc2-c2nn[nH]n2)cc1)[C@H](C(=O)O)C(C)C  normalized growth            0.986
5  CC(C)CCCC(C)C1CCC2C3CCC4CC(=O)CCC4(C)C3CCC12C (configuration not stated)  normalized growth                1
6  C[C@]12CCC3C(CC[C@H]4CC(=O)CC[C@]34C)C1CCC2=O (some centres not stated)  normalized growth             0.98

--- query ---
QUERY: Supply normalized growth value. Item: `O=c1c(-c2ccc3c(c2)OCO3)coc2cc(O)ccc12`
RESULT: 1

* * *

experiment: chemical genetic growth profiling, strain panel (AID 1159580); details: S. cerevisiae deletion strains, growth OD, locus YML120C, strain ndi1, hits give low values
The campaign covered roughly 5,500 compounds. About 2,000 (36%) were called active. Inconclusive results (about 18%) are left out. The list shows a part of the results.
Measured Quantity: normalized growth
Field format: numeric only.

# example entries with known answers
Compound	normalized growth
Cn1c([N+](=O)[O-])cnc1COC(N)=O	0.999
Fc1ccc(C(c2ccc(F)cc2)N2CCN(C/C=C/c3ccccc3)CC2)cc1	0.24
CC(C(=O)O)c1ccc(N2Cc3ccccc3C2=O)cc1 (stereo not given)	0.934

QUERY: Supply normalized growth value. Item: CC(=O)OC1CCC23C(=O)OC45CCC(C6=CC(=O)OC6)C4(C)CCC2C5CCC3(O)C1 (stereo not given)
RESULT: 1.01

QUERY: Supply normalized growth value. Item: CC(=O)O[C@H]1CC2CCC3C(CC[C@@]4(C)C3C[C@H]([N+]3(C)CCCCC3)[C@@H]4OC(C)=O)[C@@]2(C)C[C@@H]1[N+]1(C)CCCCC1 (stereo not given in full)
RESULT: 1.01

QUERY: Supply normalized growth value. Item: `CN1CCN(C(c2ccccc2)c2ccccc2)CC1`
RESULT: 0.99

QUERY: Supply normalized growth value. Item: CCCCC(=O)O[C@H]1CCC2C3CCc4cc(O)ccc4C3CC[C@@]21C (stereo not given in full)
RESULT: 1.02

QUERY: Supply normalized growth value. Item: `NCCS`
RESULT: 0.988

QUERY: Supply normalized growth value. Item: CC(=O)Oc1ccc2c(c1)CCC1C2CC[C@@]2(C)C1CC[C@@H]2OC(C)=O (stereo not given in full)
RESULT: 0.97

QUERY: Supply normalized growth value. Item: `CCCCCN=C(N)N/N=C\c1c[nH]c2ccc(OC)cc12`
RESULT: 1.01

* * *

experiment: chemical genetic growth profiling, strain panel (AID 1159580);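 also: tested at 20 µM; growth read once vehicle control cultures reached saturation at 30 °C; 1 = growth at the plate median or of vehicle wells; lower values mean less growth of the strain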; conditions: S. cerevisiae deletion strains, growth OD, locus YJR075W, strain HOC1, hits give low values
About 2,000 (36%) of roughly 5,500 compounds were called active. About 18% were inconclusive and are not listed. Some of the results follow.
Measured Quantity: normalized growth
Field format: numeric only.

> print(dat)
                                   compound  endpoint.result
1  CCCc1nc(C(C)(C)O)c(C(=O)OCc2oc(=O)oc2C)n1Cc1ccc(-c2ccccc2-c2nn[nH]n2)cc1             1.01
2  COc1cc(NC(=O)Nc2ccc(OC(F)(F)F)cc2)cc(C(F)(F)F)c1                1
3            CN1CCN(C(c2ccccc2)c2ccccc2)CC1                1
4                    Cc1cc(N=CNO)c2ccccc2n1                1
5              COC(=O)c1c(OC)ccc(N=CNO)c1OC            0.976
6  Cc1c(N(C)CS(=O)(=O)O)c(=O)n(-c2ccccc2)n1C                1
7  O=C(CCCN1CC=C(n2c(=O)[nH]c3ccccc32)CC1)c1ccc(F)cc1             0.98
8           COc1ccccc1N=C1SCC(=O)N1Cc1ccco1            0.978

--- query ---
QUERY: Supply normalized growth value. Item: O=C(NC(c1ccccc1)C(N=Cc1ccccc1)c1ccccc1)c1ccccc1 (centres undefined)
RESULT: 1.01

* * *

assay: chemical genetic growth profiling, strain panel (AID 1159580);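 also: tested at 20 µM; growth read once vehicle control cultures reached saturation at 30 °C; 1 = growth at the plate median or of vehicle wells; lower values mean less growth of the strain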; conditions: S. cerevisiae deletion strains, growth OD, locus YLL041C, strain sdh2, hits give low values
Hit rate of the full screen: of about 5,500 compounds, about 2,000 (36%) were called active. Not shown: some 18% with an inconclusive outcome. The list shows a part of the results.
We begin with a simple list: items and their reported normalized growth.
Field format: numeric only.

# example entries with known answers
Molecule	normalized growth
O=c1n(CCCN2CCN(c3cccc(Cl)c3)CC2)nc2ccccn12	0.994
COc1ccc2ccc(=O)oc2c1CC=C(C)C	0.945
c1coc(CNc2ncnc3nc[nH]c23)c1	0.997
CN(C)c1nc(N(C)C)nc(N(C)C)n1	0.983

QUERY: Supply normalized growth value. Item: CN1Cc2c(N)cccc2C(c2ccccc2)C1 (stereo not given)
RESULT: 1.01

QUERY: Supply normalized growth value. Item: CCC(=O)O[C@H]1CCC2C3CCc4cc(O)ccc4C3CC[C@@]21C (stereo not given in full)
RESULT: 1.01

QUERY: Supply normalized growth value. Item: `OCCN1CCN(CCCN2c3ccccc3Sc3ccc(Cl)cc32)CC1`
RESULT: 1

QUERY: Supply normalized growth value. Item: `N#C/C(=C\c1ccc(O)cc1)C(=O)O`
RESULT: 0.995

QUERY: Supply normalized growth value. Item: `O=c1ccc2cc(O[C@@H]3O[C@H](CO)[C@@H](O)[C@H](O)[C@H]3O)c(O)cc2o1`
RESULT: 0.971

QUERY: Supply normalized growth value. Item: `C[C@H]1C(=O)O[C@@H]2CCN3CC=C(COC(=O)[C@](C)(O)[C@]1(C)O)[C@H]23`
RESULT: 0.993

QUERY: Supply normalized growth value. Item: `Cn1c(=O)[nH]c(=O)c2[nH]cnc21`
RESULT: 1

QUERY: Supply normalized growth value. Item: CCOc1nc2cccc(C(=O)OC(C)OC(=O)OC3CCCCC3)c2n1Cc1ccc(-c2ccccc2-c2nn[nH]n2)cc1 (stereo not given)
RESULT: 1.01

QUERY: Supply normalized growth value. Item: `CNC(=O)CSP(=S)(OC)OC`
RESULT: 1.03

QUERY: Supply normalized growth value. Item: C[C@]12C=CC(=O)C=C1CCC1C2CC[C@]2(C)C(=O)CCC12 (stereo not given in full)
RESULT: 0.981

QUERY: Supply normalized growth value. Item: CCCCC(=O)O[C@H]1CCC2C3CCc4cc(O)ccc4C3CC[C@@]21C (stereo not given in full)
RESULT: 1.02

QUERY: Supply normalized growth value. Item: `CC(C)=CCOc1cc2oc(=O)ccc2cc1O`
RESULT: 0.934

* * *

assay: chemical genetic growth profiling, strain panel (AID 1159580);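 also: tested at 20 µM; growth read once vehicle control cultures reached saturation at 30 °C; 1 = growth at the plate median or of vehicle wells; lower values mean less growth of the strain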; conditions: S. cerevisiae deletion strains, growth OD, locus YLR113W, strain HOG1, hits give low values
Among all 5,500 compounds or so, about 2,000 (36%) were called active. Another 18% or so got no clear call; they are omitted. This is one part of the list.
Lab note: anything with normalized growth below 0.9 is marked Criterion met; values at 0.9 or higher are marked Criterion not met.

> print(dat)
                                   compound  qualitative.label
1  O=c1[nH]c2ccccc2n1CCCN1CCC(n2c(=O)[nH]c3cc(Cl)ccc32)CC1  Criterion not met
2  FC(F)(F)c1ccc(C2Sc3ccccc3N=C3c4ccccc4CC32)cc1 (centres undefined)      Criterion met
3  CN1Cc2c(N)cccc2C(c2ccccc2)C1 (centres undefined)  Criterion not met

QUERY: Does the reported normalized growth of the following compound sit strictly below 0.9? `CSc1sc(-c2ccn[nH]2)c(-c2ccccc2)c1C#N`
RESULT: Criterion met

QUERY: Does the reported normalized growth of the following compound sit strictly below 0.9? Cn1nnnc1SCC1=C(C(=O)O)N2C(=O)C(NC(=O)C(OC=O)c3ccccc3)C2SC1 (centres undefined)
RESULT: Criterion not met

The reported measurements were obtained from PubChem BioAssay AID1159580.
